B1: PTPN9 (parent)
chain: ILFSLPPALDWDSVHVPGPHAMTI

# Variants of: B1
# assay: protein stability index of a GFP-peptide fusion (GPS, HEK-293T) (PSI 1-6); higher = more stable;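 also: lentivirally expressed fusions sorted by FACS into six bins by GFP to DsRed ratio, PSI derived from sequencing read proportions per bin multiplied by bin number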
# assayConditions: c terminus: a fixed tail appended
protein stability index of 2 or higher: YES. Under 2: NO.

Record F3E ; criterion: protein stability index no lower than 2. Met? NO

Please tell me: is the variant A21M at or over 2 in terms of protein stability index? YES

Would you say P19N shows protein stability index at minimum 2? YES

Is protein stability index for A21C at or above 2? YES

Could you verify whether the entry L9R shows protein stability index of no less than 2? YES

Does protein stability index meet or surpass 2 for W11G ? YES

Entry A21H : is its protein stability index no less than 2? YES

Reported protein stability index at or above 2? I24N NO

Would you say L5C shows protein stability index at minimum 2? YES

Would you say L2W shows protein stability index at minimum 2? YES

// inclusive: protein stability index at least 2? input: P7N YES

# check: protein stability index of W11Q is greater than or equal to 2 YES

Item I1W with protein stability index of 2 or above? NO

Is the recorded value of protein stability index equal to or greater than 2 for this variant? P19G YES

Please indicate if the recorded protein stability index for H20C meets or exceeds 2. YES

Answer whether protein stability index of V16M is greater than or equal to 2. YES

Entry L2V : is its protein stability index no less than 2? YES

hey, is protein stability index for this one >= 2? I24S NO

Test whether the variant G18A records protein stability index of 2 or higher. YES

Could you verify whether the entry I1H shows protein stability index of no less than 2? NO

Has F3D a recorded protein stability index greater than or equal to 2? NO

Is it the case that H20L has protein stability index reaching or exceeding 2? YES

Tell me whether protein stability index is at least 2 here: D10L YES

Is protein stability index at least 2? Consider W11D NO

Check the entry D12M : does protein stability index equal or exceed 2? YES
